- target-of-assay: Procathepsin L (Homo sapiens, UniProt P07711)
- Sequence (P07711 whole entry): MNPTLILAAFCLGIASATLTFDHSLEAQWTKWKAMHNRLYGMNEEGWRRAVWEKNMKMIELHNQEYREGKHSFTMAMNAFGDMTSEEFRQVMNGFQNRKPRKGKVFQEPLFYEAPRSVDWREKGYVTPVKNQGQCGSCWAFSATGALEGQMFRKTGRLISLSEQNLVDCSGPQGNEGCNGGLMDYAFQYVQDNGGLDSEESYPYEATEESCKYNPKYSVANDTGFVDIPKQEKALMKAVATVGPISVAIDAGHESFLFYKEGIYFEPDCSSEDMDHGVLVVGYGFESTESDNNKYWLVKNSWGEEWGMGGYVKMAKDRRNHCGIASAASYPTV
Hi there, I'd appreciate the recorded log10 of Ki for every entry that follows.
Please be aware that the numbers have been log10-transformed from Ki in nM.

Could I get log10 of Ki for every one of these entries?
1. N#CCNC(=O)[C@H](Cc1ccccc1)NC(=O)c1cncnc1
2. CC(C)C[C@H](NC(=O)Cc1ccccc1)C(=O)NC1(C#N)CC1
3. N#CCNC(=O)[C@H](Cc1ccc(O)cc1)NC(=O)c1ccccc1
4. N#CCNC(=O)[C@H](Cc1c[nH]c2ccccc12)NC(=O)c1ccccc1
5. N#CC1(NC(=O)[C@H](Cc2ccccc2)NC(=O)c2ccccc2)CC1

[3.00, 1.80, 1.90, 1.70, 1.70]

These measurements were taken from ChEMBL document CHEMBL4699568.
